Collected pIC50 values appear next to each entry.
# TEST_TARGET: HIV-1 RT (Human immunodeficiency virus type 1 group M subtype B, UniProt P04585)
pIC50: −log10 of the molar value.
PARAMETER: pIC50

# SMILES_STRUCTURE, PARAMETER, READOUT_NUMBER
records = [
    ("N#Cc1cc(Cl)cc(Oc2c(Br)ccc(CN3CCC(=O)NC3=O)c2F)c1", "pIC50", 7.54),
    ("CCc1ccc(Cn2cc(Cl)c(=O)[nH]c2=O)c(F)c1Oc1cc(Cl)cc(C#N)c1", "pIC50", 8.85),
    ("N#Cc1cc(Cl)cc(Oc2c(Br)ccc(Cn3ccc(N)nc3=O)c2F)c1", "pIC50", 6.83),
    ("N#Cc1cc(Cl)cc(Oc2c(Br)ccc(Cn3cc(C#N)c(=O)[nH]c3=O)c2F)c1", "pIC50", 7.21),
    ("N#Cc1cc(Cl)cc(Oc2c(Br)ccc(Cn3cc(CO)c(=O)[nH]c3=O)c2F)c1", "pIC50", 7.95),
    ("N#Cc1cc(Cl)cc(Oc2c(Cl)ccc(Cn3cc(Cl)c(=O)[nH]c3=O)c2F)c1", "pIC50", 8.43),
    ("Cc1cn(Cc2ccc(Cl)c(Oc3cc(Cl)cc(C#N)c3)c2F)c(=O)[nH]c1=O", "pIC50", 8.51),
    ("N#Cc1cc(Cl)cc(Oc2c(Br)ccc(Cn3cc(O)c(=O)[nH]c3=O)c2F)c1", "pIC50", 7.46),
]
